- System name: T1, Human ROR1-ECD-his (Acro Biosystems RO1-H522y) (human, UniProt Q01973 30-406)
- T1 construct: extracellular domain; bought protein; also called hROR1-ECD-his; hu-ROR1-ECD-his
- T1 sequence (Q01973 30-406): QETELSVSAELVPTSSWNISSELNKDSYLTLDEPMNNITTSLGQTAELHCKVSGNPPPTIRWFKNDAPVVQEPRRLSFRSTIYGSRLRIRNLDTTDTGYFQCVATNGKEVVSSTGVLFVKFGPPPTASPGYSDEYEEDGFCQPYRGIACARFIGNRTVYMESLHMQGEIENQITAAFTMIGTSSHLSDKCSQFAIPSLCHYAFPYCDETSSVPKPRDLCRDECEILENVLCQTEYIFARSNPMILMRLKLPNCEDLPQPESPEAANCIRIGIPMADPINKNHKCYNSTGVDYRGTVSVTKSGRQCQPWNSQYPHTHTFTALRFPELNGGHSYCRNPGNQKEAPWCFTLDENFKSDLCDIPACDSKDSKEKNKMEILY
- Assay notes: BLI, antibody on AHC sensor, ROR1-His 5-80 nM in solution
Consider the following binders; for each one, report its kon.
Record the value in M⁻¹ s⁻¹, omitting the unit from your answer.

Briefly, kon measured for PR005338 (antibody, human IgG1, V domains shown, HCAb (heavy chain-only, human IgG1 Fc), no light chain) VH: EVQLVESGGGLVKPGGSLRLSCAASGFTFSDYYMSWIRQAPGKGLEWISYISSSGTTIHYADSVKGRFTISRDNAKNSLYLQMNSLRTEDTAVYYCARDAPSSNSDWVSLQFDYWGQGTLVTVSS : 132000

Briefly, kon measured for PR005340 (antibody, human IgG1, V domains shown, HCAb (heavy chain-only, human IgG1 Fc), no light chain) VH: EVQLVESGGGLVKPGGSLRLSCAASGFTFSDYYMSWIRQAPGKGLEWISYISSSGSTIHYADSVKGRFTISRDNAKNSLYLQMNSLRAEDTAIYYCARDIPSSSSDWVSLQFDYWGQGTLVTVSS : 143000

Briefly, kon measured for PR007417 (antibody, V domains shown, bivalent form (HCAb) variant of PR005340, no light chain) VH: EVQLVESGGGLVKPGGSLRLSCAASGFTFSDFYMSWIRQAPGKGLEWISYISSSGSTRYYADSVKGRFTISRDNAKNSLYLQMNSLRAEDTAIYYCARDIPSSSSDWVDLQFDYWGQGTLVTVSS : 271000
